Each entry below lists one item and its recorded Growth Rate value.
# Tested on: Fibroblast
# Assay Summary: Incucyte cell viability with human fibroblast; note: filed as whole numbers so only -1 and 0 and 1 occur
# Format: toxicity, cell-based
# Assay Setup: 12 h, 10 µM, compound concentration 10 uM, replicate number 1, timepoint 12 hours

{"Entry Smiles": "CCNC(=O)c1cc2c(N3CCOC[C@@H]3C)ccnc2n1C", "Growth Rate": 1}
{"Entry Smiles": "COc1cc(Nc2nccc(-c3cnn4nc(OC)ccc34)n2)cc(C(F)(F)F)c1", "Growth Rate": 0}
{"Entry Smiles": "CC(C)(C)NC[C@H](O)COc1nsnc1N1CCOCC1", "Growth Rate": 1}
{"Entry Smiles": "CN(C)C(=O)Cn1cc(-c2nc([C@@](C)(c3ccc(-c4cnc(N)nc4)cc3)C3CC3)no2)cn1", "Growth Rate": 1}
{"Entry Smiles": "CC1(C)CCC(C)(C)c2cc(C(=O)Nc3ccc(C(=O)O)cc3)ccc21", "Growth Rate": 1}
{"Entry Smiles": "O=C(NCC(=O)N1CCCC1)Nc1ccc2cnccc2c1", "Growth Rate": 0}
{"Entry Smiles": "C[C@]1(C(=O)N(CCCC(=O)O)Cc2cccc(Cl)c2)CCN1C(=O)c1csc2ccccc12", "Growth Rate": 0}
{"Entry Smiles": "COc1ccc(-c2ccc3cc(C(=O)O)ccc3c2)cc1C12CC3CC(CC(C3)C1)C2", "Growth Rate": 0}
{"Entry Smiles": "CNCc1ccccc1-c1csc([C@@H](C)Nc2nc(C)nc3cc(OC)c(OC)cc23)c1", "Growth Rate": 0}
